Where do these numbers come from? They come from PubChem BioAssay AID1851.

- System Under Test: Cytochrome P450 3A4 (Homo sapiens) (UniProt P08684)
- Sequence (P08684 whole entry, looked up): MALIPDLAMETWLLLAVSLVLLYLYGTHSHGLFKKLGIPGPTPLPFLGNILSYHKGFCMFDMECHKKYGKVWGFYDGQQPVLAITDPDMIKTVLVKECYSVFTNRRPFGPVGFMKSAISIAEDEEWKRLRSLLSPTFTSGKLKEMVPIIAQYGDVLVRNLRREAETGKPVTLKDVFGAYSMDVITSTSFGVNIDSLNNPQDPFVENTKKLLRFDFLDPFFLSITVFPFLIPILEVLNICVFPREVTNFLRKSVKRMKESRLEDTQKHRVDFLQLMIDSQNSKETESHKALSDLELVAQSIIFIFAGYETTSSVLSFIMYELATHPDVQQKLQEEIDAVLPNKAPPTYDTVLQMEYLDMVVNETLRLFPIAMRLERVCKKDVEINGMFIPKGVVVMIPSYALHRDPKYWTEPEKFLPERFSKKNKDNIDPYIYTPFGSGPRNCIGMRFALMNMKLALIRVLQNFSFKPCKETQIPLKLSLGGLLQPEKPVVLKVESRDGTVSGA
- Assay Name: Cytochrome panel assay with activity outcomes
- Test Parameters: recombinant CYP, pro-luciferin dealkylation, luminescence, p450-cyp3a4; series mostly up to 57.1 µM
Screen size: about 16,000 compounds; about 5,100 (32%) were called active. Roughly 25% stayed inconclusive and do not appear here. The list shows a part of the results.
Measured Quantity: AC50

Take a look at these entries with their results.
response.value for "NC(=O)c1cc[n+](CC2=C(C(=O)O)N3C(=O)[C@@H](NC(=O)[C@H](c4ccccc4)S(=O)(=O)[O-])[C@@H]3SC2)cc1" (field: AC50) = inactive

response.value for "CSc1nc(-c2ccc(C)cc2)[nH]c1S(=O)(=O)c1ccccc1" (field: AC50) = 28.2 µM (active)

response.value for "CSc1nc(O)c(Cc2ccccc2)c(=O)[nH]1" (field: AC50) = inactive

response.value for COc1cccc2c1OC1(C)CC2/C(=C(\C)O)C(=O)N1 (stereo not given) (field: AC50) = inactive

Turning to the following molecule.
response.value for "CCCn1nnc(NC(=O)c2ccc(-c3cccc(Cl)c3)o2)n1" (field: AC50) = 28.2 µM (active)
